All figures here come from patent US20100075907A1.

subject_of_test: Mouse NMUR1-CTG (Mus musculus)
Sequence (O55040 1-428): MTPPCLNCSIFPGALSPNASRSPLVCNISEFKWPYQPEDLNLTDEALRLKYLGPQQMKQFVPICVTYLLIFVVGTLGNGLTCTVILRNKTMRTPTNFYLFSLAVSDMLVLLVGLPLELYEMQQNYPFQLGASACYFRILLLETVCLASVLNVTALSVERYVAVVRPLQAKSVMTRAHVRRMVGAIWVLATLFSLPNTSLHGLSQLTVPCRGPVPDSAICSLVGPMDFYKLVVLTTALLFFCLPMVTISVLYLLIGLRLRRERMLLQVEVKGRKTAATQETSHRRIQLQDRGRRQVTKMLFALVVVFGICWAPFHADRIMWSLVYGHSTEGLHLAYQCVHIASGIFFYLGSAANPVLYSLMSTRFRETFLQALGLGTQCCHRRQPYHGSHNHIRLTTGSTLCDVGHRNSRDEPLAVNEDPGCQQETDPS
test_method_notes: FLIPR calcium mobilization assay, mouse NMUR1-CTG
Format: cell-based
Parameters: expressed in transfected cells; host or cells: FLP-In CHO or HEK-293 FLP-In cells (pcDNA5)
test_settings: maximum response at 1 μM compared to hNMU-25; mouse NMUR1-CTG
Starred links: 1 amine or outer side, 2 acyl side, 3 side chain; linkers in the order of their positions; H or OH if unused. Residues, ends and D or L forms follow the SMILES beside them. *: point of attachment. X1 = CC(C)CCC[C@@H](C)[C@H]1CC[C@H]2[C@@H]3CC=C4C[C@@H](OC(=O)C*)CC[C@]4(C)[C@H]3CC[C@]12C; X2 = CCN1C(=O)CC(SC[C@H](NC(C)=O)C(=O)NCCCOCCOCCOCCCN*)C1=O; Succinimide(1-Et,3-yl) = CCN1C(=O)CC(*)C1=O; Suc = O=C(CCC(=O)[*:2])[*:1]
measure_name: % Activity (%)

compound	measure_name	reading
CCN1C(=O)CC(SC[C@H](NC(C)=O)C(=O)NCC(=O)N[C@@H](Cc2ccc(O)cc2)C(=O)N[C@@H](Cc2ccccc2)C(=O)N[C@@H](CC(C)C)C(=O)N[C@@H](Cc2ccccc2)C(=O)N[C@@H](CCCNC(=N)N)C(=O)N2CCC[C@H]2C(=O)N[C@@H](CCCNC(=N)N)C(=O)N[C@@H](CC(N)=O)C(N)=O)C1=O (stereo partly shown) [NMU6] (Ac-C(Succinimide(1-Et,3-yl))GYFLFRPRN-NH2)	% Activity	100
CC(=O)N[C@@H](CSCC(=O)O[C@H]1CC[C@@]2(C)C(=CC[C@H]3[C@@H]4CC[C@H]([C@H](C)CCCC(C)C)[C@@]4(C)CC[C@@H]32)C1)C(=O)NCC(=O)N[C@@H](Cc1ccc(O)cc1)C(=O)N[C@@H](Cc1ccccc1)C(=O)N[C@@H](CC(C)C)C(=O)N[C@@H](Cc1ccccc1)C(=O)N[C@@H](CCCNC(=N)N)C(=O)N1CCC[C@H]1C(=O)N[C@@H](CCCNC(=N)N)C(=O)N[C@@H](CC(N)=O)C(N)=O [NMU11] (Ac-C(X1)GYFLFRPRN-NH2)	% Activity	65.0
CCN1C(=O)CC(SC[C@H](NC(C)=O)C(=O)N[C@@H](C)C(=O)N[C@@H](CO)C(=O)N[C@@H](CCC(N)=O)C(=O)N[C@@H](CO)C(=O)N[C@@H](CCCNC(=N)N)C(=O)NCC(=O)N[C@@H](Cc2ccc(O)cc2)C(=O)N[C@@H](Cc2ccccc2)C(=O)N[C@@H](CC(C)C)C(=O)N[C@@H](Cc2ccccc2)C(=O)N[C@@H](CCCNC(=N)N)C(=O)N2CCC[C@H]2C(=O)N[C@@H](CCCNC(=N)N)C(=O)N[C@@H](CC(N)=O)C(N)=O)C1=O (stereo partly shown) [NMU17] (Ac-C(Succinimide(1-Et,3-yl))ASQSRGYFLFRPRN-NH2)	% Activity	116.6
CCN1C(=O)CC(SC[C@H](NC(C)=O)C(=O)NCCCOCCOCCOCCCNC(=O)CCC(=O)N[C@@H](Cc2ccccc2)C(=O)N[C@@H](CC(C)C)C(=O)N[C@@H](Cc2ccccc2)C(=O)N[C@@H](CCCNC(=N)N)C(=O)N2CCC[C@H]2C(=O)N[C@@H](CCCNC(=N)N)C(=O)N[C@@H](CC(N)=O)C(N)=O)C1=O (stereo partly shown) [NMU15, Ac-C1-Ttds-FLFRPRN-CONH2] ({X2-Suc}-FLFRPRN-NH2)	% Activity	100
